- testTarget: T1, human CD1a expressed on cells (human, UniProt P06126 17-327; P61769 21-119)
- T1 construct: also called HEK - CD1a; C1R - CD1a
- methodSummary: flow cytometry, C1R cells, 1 µg/ml antibody
quantityMeasured: Fluorescence Intensity Geomean (normalized to background) (fold over background)

[
  {
    "binder": "110 (VR12112) (antibody, V domains shown, also called OX110; antibody 110) VH: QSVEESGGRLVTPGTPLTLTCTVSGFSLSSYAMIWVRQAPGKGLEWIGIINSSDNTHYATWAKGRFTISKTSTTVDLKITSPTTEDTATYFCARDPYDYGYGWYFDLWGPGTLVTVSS VL: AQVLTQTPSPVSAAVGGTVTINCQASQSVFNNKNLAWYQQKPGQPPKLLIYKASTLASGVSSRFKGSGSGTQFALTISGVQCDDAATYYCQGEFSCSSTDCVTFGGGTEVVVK",
    "numericResult": 28.2
  },
  {
    "binder": "77A (VR11851) (antibody, V domains shown, also called OX77a; antibody 77a) VH: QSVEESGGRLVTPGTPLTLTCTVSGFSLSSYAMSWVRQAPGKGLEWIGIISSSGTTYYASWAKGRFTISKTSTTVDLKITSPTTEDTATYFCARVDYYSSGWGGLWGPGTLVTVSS VL: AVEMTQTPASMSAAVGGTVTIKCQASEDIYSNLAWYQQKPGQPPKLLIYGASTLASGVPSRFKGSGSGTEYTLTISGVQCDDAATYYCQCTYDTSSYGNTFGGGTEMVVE",
    "numericResult": 10.3
  },
  {
    "binder": "16 (VR11834) (antibody, V domains shown, also called OX16; antibody 16) VH: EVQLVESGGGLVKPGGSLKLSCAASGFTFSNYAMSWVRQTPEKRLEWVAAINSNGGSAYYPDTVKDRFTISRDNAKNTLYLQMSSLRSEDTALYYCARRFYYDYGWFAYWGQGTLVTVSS VL: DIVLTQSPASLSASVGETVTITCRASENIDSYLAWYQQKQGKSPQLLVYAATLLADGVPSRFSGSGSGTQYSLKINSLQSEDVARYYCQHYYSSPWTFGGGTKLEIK",
    "numericResult": 10.1
  },
  {
    "binder": "111 (VR12113) (antibody, V domains shown, also called OX111) VH: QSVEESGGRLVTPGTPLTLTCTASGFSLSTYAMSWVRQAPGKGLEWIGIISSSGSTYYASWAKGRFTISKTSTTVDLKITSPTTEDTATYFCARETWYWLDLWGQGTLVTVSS VL: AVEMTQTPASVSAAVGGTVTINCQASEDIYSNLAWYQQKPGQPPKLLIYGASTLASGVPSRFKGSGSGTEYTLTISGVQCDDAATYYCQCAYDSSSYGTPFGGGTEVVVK",
    "numericResult": 28
  }
]
